Listed compounds paired with reported Log P
- condition label: pH 2.7
Marks after values point to notes of the source that are not given here.

CCOC(=O)C(C#N)=C(NC(C)c1nccs1)c1c(C)nn(C)c1Cl (stereo not drawn) [Compound 98] = 2.52^[a]
C=Cc1nn(C)cc1C(NC(C)CF)=C(C#N)C(=O)OCC (stereo not drawn) [Compound 749] = 2.25^[a]

Query (compound): CCOC(=O)C(C#N)=C(NC(C)c1ncc(C)s1)c1cn(C)nc1C(F)F (stereo not drawn) [Compound 190] ; field requested: Log P
2.68^[a]

Query (compound): COC(=O)C(C#N)=C(NC(c1cccc(Cl)c1)C1CC1)c1cccnc1Cl (stereo not drawn) [Compound 390] ; field requested: Log P
2.93^[a]

Query (compound): CCOC(=O)C(C#N)=C(NC(C)c1ccccn1)c1ccncc1F (mixture of isomers) [Compound 300] ; field requested: Log P
2.28^[a]

Query (compound): CCOC(=O)C(C#N)=C(NC(C)C1CC1)c1cc(Cl)cc(Cl)n1 (racemic) [Compound 900] ; field requested: Log P
3.92^[a]

Query (compound): CCOC(=O)C(C#N)=C(NC1CC1(C)C)c1cccnc1Cl (stereo not drawn) [Compound 1055] ; field requested: Log P
3.25^[a]

Query (compound): CCOC(=O)C(C#N)=C(NC(C)C(C)C)c1cc(Cl)sc1Cl (stereo not drawn) [Compound 1580] ; field requested: Log P
4.68^[a]

Query (compound): CCOC(=O)C(C#N)=C(Nc1ccc(SC)cc1)c1sccc1C(F)(F)F [Compound 462] ; field requested: Log P
4.09^[a]

The origin of these recorded values is patent US8476197B2.
